Listing of entries alongside the reported ratio to parent.
B1: H2-Kb / B16 (parent)
chain 1: QQQVRQSPQSLTVWEGGTTVLTCSYEDSTFNYFPWYQQFPGEGPALLISILSVSDKKEDGRFTTFFNKREKKLSLHIIDSQPGDSATYFCAARGSALGRLHFGAGTQLIVIP
chain 2: EAAVTQSPRSKVAVTGGKVTLSCHQTNNHDYMYWYRQDTGHGLRLIHYSYVADSTEKGDIPDGYKASRPSQENFSLILELASLSQTAVYFCASSDGTNQAPLFGEGTRLSVL
chain 3: not shown
chain 4: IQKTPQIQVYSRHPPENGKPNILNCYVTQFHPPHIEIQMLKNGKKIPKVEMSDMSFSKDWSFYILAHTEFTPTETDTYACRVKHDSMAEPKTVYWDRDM
chain 5: SIINFEKL

Variants of: B1
Test Protocol: % of reporter cells activated (NFAT-GFP), raw; further: test concentration or dose not given here
Condition Notes: with B16; scale: % of reporter cells activated

| Mutation Spec | ratio to parent |
| --- | --- |
| chain 5 I2C | 1.48 |
| chain 5 K7D | 0.886 |
| chain 5 E6M | 1.43 |
| chain 5 L8S | 0.65 |
| chain 5 F5K | 1.52 |
| chain 5 E6R | 1.29 |
| chain 5 E6S | 1.25 |
| chain 5 F5D | 1.4 |
| chain 5 K7A | 1.29 |
| chain 5 S1Y | 1.56 |
| chain 5 N4C | 1.2 |
| chain 5 I3S | 1.5 |
| chain 5 E6D | 1.36 |
| chain 5 E6Y | 1.02 |
| chain 5 E6F | 1.48 |
| chain 5 I2H | 1.62 |
| chain 5 K7I | 1.41 |
